# target or system: human PDE10A (Homo sapiens (Human))
# Sequence (Q9Y233 other isoform, or with tags, fused parts or gaps): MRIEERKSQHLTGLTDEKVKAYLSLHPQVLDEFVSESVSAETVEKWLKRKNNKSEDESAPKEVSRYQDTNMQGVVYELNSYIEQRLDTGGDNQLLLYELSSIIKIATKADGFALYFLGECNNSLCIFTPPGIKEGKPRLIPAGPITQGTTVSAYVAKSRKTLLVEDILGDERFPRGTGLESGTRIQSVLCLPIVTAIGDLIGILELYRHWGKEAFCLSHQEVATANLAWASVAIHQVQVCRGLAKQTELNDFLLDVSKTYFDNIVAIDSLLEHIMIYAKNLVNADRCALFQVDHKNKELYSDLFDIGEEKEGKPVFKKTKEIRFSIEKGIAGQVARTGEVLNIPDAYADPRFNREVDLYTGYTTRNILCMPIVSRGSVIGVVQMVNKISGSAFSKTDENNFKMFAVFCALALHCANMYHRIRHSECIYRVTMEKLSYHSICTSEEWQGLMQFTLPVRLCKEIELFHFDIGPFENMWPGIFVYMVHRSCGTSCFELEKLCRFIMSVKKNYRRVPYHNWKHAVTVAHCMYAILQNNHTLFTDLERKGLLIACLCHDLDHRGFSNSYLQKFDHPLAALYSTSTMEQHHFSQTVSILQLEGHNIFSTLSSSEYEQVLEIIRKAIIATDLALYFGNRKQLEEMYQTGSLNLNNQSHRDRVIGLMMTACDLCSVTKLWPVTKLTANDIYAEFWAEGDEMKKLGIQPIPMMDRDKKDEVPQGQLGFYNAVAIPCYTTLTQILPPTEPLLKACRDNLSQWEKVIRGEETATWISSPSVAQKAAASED
# measurement protocol: human PDE10A full length assay ([3H]-cGMP SPA)
# Assay type: biochemical
# details: human PDE10A full length enzyme, 50 nM cGMP + 50 nM [3H]-cGMP, 20 minutes at room temperature; read-out: PDE10A inhibition IC50
# Protocol: The human PDE10A full length assay was performed in 96-well micro titer plates. […] Afterwards, radioactive counts were measured on a Perkin Elmer TopCount Scintillation plate reader.
assay readout: log10(IC50) (log10 of the value in nM)
Base-10 log of IC50, unit nM.

Consider the worked cases shown below.
{"test smiles": "Cc1nc2ccc(CCc3nc(N4CCCC4)nn3C)nn2c1Cl", "target or system": "human PDE10A (Homo sapiens (Human))", "numeric result": 1.16}
{"test smiles": "Cc1nc2c(S(C)(=O)=O)cc(C#Cc3nc(N4CCCC4)nn3C)nn2c1C", "target or system": "human PDE10A (Homo sapiens (Human))", "numeric result": 0.70}
{"test smiles": "Cc1nc2c(C3CCC3)cc(C#Cc3nc(N4CCCC4)nn3C)nn2c1C", "target or system": "human PDE10A (Homo sapiens (Human))", "numeric result": -0.05}

### Prompt Quick one: give measured log10(IC50) for Cc1cc(C#Cc2nc(N3CCCC3)nn2C)nn2c(C)c(C(F)(F)F)nc12
### Response 0.20

### Prompt # return recorded log10(IC50) for entry Cc1c(C(F)(F)F)nc2ccc(CCc3nc(N4CCCC4)n(C)n3)nn12
### Response 1.28

### Prompt # return recorded log10(IC50) for entry Cc1cc2nc(C)c(C)n2nc1CCc1nc(N2CCCC2)nn1C
### Response 2.29

### Prompt Identify the reported log10(IC50) for the following entry. COc1cc(CCc2nc(N3CCCC3)nn2C)nn2c(C)c(C(F)(F)F)nc12
### Response 0.30

### Prompt Identify measured log10(IC50) corresponding to Cc1c(Cl)nc2ccc(CCc3nc(N4CCCC4)nn3C)nn12
### Response 0.74

### Prompt Read the entry Cc1c(C#N)nc2ccc(/C=C/c3nc(N4CCCC4)nn3C)nn12 and write its reported log10(IC50).
### Response 0.70

### Prompt Tell me log10(IC50) reported for Cc1nc2c(NC(C)C)nc(CCc3nc(N4CCCC4)nn3C)nn2c1C
### Response 0.48

### Prompt State its log10(IC50): Cc1nc2ccc(OCc3nc(N4CCCC4)nn3C)nn2c1C
### Response 1.99

====

A short record of IC50 observed with human PDE10A (Homo sapiens (Human)) follows.
# number only, unit nM dropped from output

Here's what some known entries look like.
{"compound": "Cc1nc2c(Cl)nc(CCc3nc(N4CCCC4)nn3C)nn2c1C [Example 15]", "target or system": "human PDE10A (Homo sapiens (Human))", "IC50 [nM]": 4}
{"compound": "Cc1nc2c(C(C)C)cc(C#Cc3nc(N4CCCC4)nn3C)nn2c1C [Example 44]", "target or system": "human PDE10A (Homo sapiens (Human))", "IC50 [nM]": 1}
{"compound": "Cc1c(C#N)nc2ccc(CCc3nc(N4CCCC4)nn3C)nn12 [Example 5]", "target or system": "human PDE10A (Homo sapiens (Human))", "IC50 [nM]": 21}
{"compound": "Cc1nc2c(Cl)nc(CCc3nc(N4CCCC4)n(C)n3)nn2c1C [Example 20]", "target or system": "human PDE10A (Homo sapiens (Human))", "IC50 [nM]": 11}
{"compound": "Cc1c(C(F)(F)F)nc2ccc(CCc3nc(N4CCCC4)nn3C)nn12 [Example 1]", "target or system": "human PDE10A (Homo sapiens (Human))", "IC50 [nM]": 12}

### Prompt Specify IC50 for COc1nc(CCc2nc(N3CCCC3)nn2C)nn2c(C)c(C)nc12 [Example 13] and stop.
### Response 2

### Prompt Look up and report measured IC50 for this entry: Cc1cc2nc(C)c(C)n2nc1C#Cc1nc(N2CCCC2)nn1C [Example 17]
### Response 1

### Prompt State, in one line, measured IC50 of Cc1nc2c(OC(C)C)cc(/C=C/c3nc(N4CCCC4)nn3C)nn2c1C [Example 26]
### Response 0.493

### Prompt Answer with reported IC50 of Cc1c(C(F)(F)F)nc2c(OCC(F)(F)F)cc(CCc3nc(N4CCCC4)nn3C)nn12 [Example 63]
### Response 9.4
